Values were extracted from patent US10618903B2.

system: IL-6 levels in human whole blood stimulated with a TLR2 agonist; experiment: IRAK4 Whole Blood Assay (lipoteichoic acid/TLR2-stimulated IL-6); format: cell-based; conditions: Homo sapiens, lipoteichoic acid 10 μg/mL, IL-6 readout
Consider the following molecules; for each one, report its EC50.
Numbers only, in nM.

Examples from the recorded data:
# molecule, target_or_system, reported_property, endpoint_unit, result
data = [
    ("CC(C)(O)[C@H](F)CNC(=O)c1cnc(-c2cnn3cc(C#N)cnc23)cc1NC1CC1 [Example 92]", "IL-6 levels in human whole blood stimulated with a TLR2 agonist", "EC50", "nM", 720),
    ("Cn1cc(Nc2cc(-c3cnn4cc(C#N)cnc34)ncc2C(=O)NC[C@@H](F)C(C)(C)O)cn1 [Example 240]", "IL-6 levels in human whole blood stimulated with a TLR2 agonist", "EC50", "nM", 180),
    ("CC(C)(O)[C@H](F)CNC(=O)c1cnc(-c2cnn3cc(Cl)cnc23)cc1NCC1(O)CCC1 [Example 51]", "IL-6 levels in human whole blood stimulated with a TLR2 agonist", "EC50", "nM", 1250),
    ("CC(=O)N[C@H]1CC[C@H](NC(=O)c2cnc(-c3cnn4cc(Cl)cnc34)cc2NC(C)C)CC1 [Example 23]", "IL-6 levels in human whole blood stimulated with a TLR2 agonist", "EC50", "nM", 720),
    ("CC(C)Nc1cc(-c2cnc3cc(C#N)cnn23)ncc1C(=O)NCCc1cccs1 [Example 213]", "IL-6 levels in human whole blood stimulated with a TLR2 agonist", "EC50", "nM", 890),
]

Could you tell me EC50 for each of these molecules? They are listed below.
1. CC(C)(O)[C@H](F)CNC(=O)c1cnc(-c2cnn3cc(Cl)cnc23)cc1NC1COCC1(F)F (single isomer, unassigned) [Example 18]
2. COC(=O)N[C@H]1CC[C@H](NC(=O)c2cnc(-c3cnc4cc(C#N)cnn34)cc2NC(C)C)CC1 [Example 223]
3. CC(C)Nc1cc(-c2cnn3cc(Cl)cnc23)ncc1C(=O)N[C@H]1CC[C@H](C(=O)NC2CC2)CC1 [Example 28]

Output:
1. 1150
2. 810
3. 1920

----------
The following molecules have recorded IC50 on IRAK4 (Homo sapiens (Human)).
Sequence (Q9NWZ3 whole entry): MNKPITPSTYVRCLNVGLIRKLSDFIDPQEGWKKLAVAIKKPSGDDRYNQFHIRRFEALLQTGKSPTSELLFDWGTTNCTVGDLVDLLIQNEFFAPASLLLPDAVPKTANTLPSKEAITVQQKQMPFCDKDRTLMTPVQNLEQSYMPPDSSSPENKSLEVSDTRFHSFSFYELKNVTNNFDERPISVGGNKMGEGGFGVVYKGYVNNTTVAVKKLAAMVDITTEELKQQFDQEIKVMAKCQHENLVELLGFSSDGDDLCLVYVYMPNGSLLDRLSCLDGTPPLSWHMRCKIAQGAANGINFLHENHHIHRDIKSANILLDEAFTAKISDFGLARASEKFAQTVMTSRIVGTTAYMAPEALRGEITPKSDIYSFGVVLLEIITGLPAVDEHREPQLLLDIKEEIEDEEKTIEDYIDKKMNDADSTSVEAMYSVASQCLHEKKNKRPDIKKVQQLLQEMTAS
Give bare numbers, in nM.

Examples from the recorded data:
# mol, IC50, nM
records = [
    ("CC(C)(O)[C@H](F)CNC(=O)c1cnc(-c2cnn3cc(Cl)cnc23)cc1NC1CCCC1", 2),
    ("CC(C)(O)[C@H](F)CNC(=O)c1cnc(-c2cnn3cc(C#N)cnc23)cc1N[C@@H](CO)Cc1ccccc1", 7),
    ("CC(=O)N[C@H]1CC[C@H](NC(=O)c2cnc(-c3cnn4cc(Cl)cnc34)cc2NC(C)C)CC1", 10),
    ("CC(C)(O)[C@H](F)CNC(=O)c1cnc(-c2cnn3cc(Cl)cnc23)cc1Nc1cnn(C2CCC2)c1", 1),
    ("CC(C)Nc1cc(-c2cnn3cc(Cl)cnc23)ncc1C(=O)NC[C@@H](F)C(C)(C)OC(F)F", 3),
    ("CC(C)Nc1cc(-c2cnc3cc(C#N)cnn23)ncc1C(=O)NCCC1(O)CCCC1", 2),
]

Let us examine a further case.
Task: Name the recorded IC50 for CC(C)(C)Nc1cc(-c2cnn3cc(Cl)cnc23)ncc1C(=O)NC[C@@H](F)C(C)(C)O .
Output: 2
